- method.description: amyloid nucleation score (Sup35N fusion, yeast selection) (log enrichment); library NNK2; higher = more nucleation; inactive = no reads after selection;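 note: zero at mode of non-aggregating sequences after 7 days selection at 30°C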
experimental.endpoint: amyloid nucleation score
Give bare numbers.

1. GLAEYRS | -0.488
2. WWSARYRGTLD | 1.57

Please state amyloid nucleation score for every substance in the list that follows.
1. KASTRQ
2. ALGHIQLKLHCWDYGKRCAS

Output line:
1. 1.51
2. 0.623

Please state amyloid nucleation score for every substance in the list that follows.
1. RGFCYNIT
2. ATIWCCRVKGQVGSFNL
3. SISTSTGLRRHPYNGPKIGM
4. CLSCANL
5. YILNMFKETLDVLVLKRNCF
6. MIFCCTRK

Output line:
1: 0.305; 2: 0.868; 3: -0.221; 4: 0.486; 5: -1.18; 6: 8.71

Please state amyloid nucleation score for every substance in the list that follows.
1. TLPVPPGCRFVEITV
2. SNGFGCAEVSGYYVSN
3. HLMCESGRVFWKD
4. FFFKSSLLR

Output line:
1. 0.293
2. -0.691
3. 0.015
4. 0.241
